test: TIMS collisional cross section (CCS, N2) of the lipid ion; higher = larger ion cross section; details: sample type: HeLa; ionization mode: positive; one isomer drawn
MEASURED_ATTRIBUTE: TIMS collisional cross section (Å²)

CCCCCCC/C=C\CCCCCCCC(=O)O[C@@H](COC(=O)CCCCCCC/C=C\CCCCCCCC)COC(=O)CCCCCCCCCCCCC [TG 14:0_17:1_18:1] (ion (formula + adduct): [C52H96O6+NH4] 1+): 312.9
CCCCC/C=C\C/C=C\C/C=C\C/C=C\CCCC(=O)OC[C@@H](COC(=O)CCCCCCC/C=C\CCCCCC)OC(=O)CCC/C=C\C/C=C\C/C=C\C/C=C\CCCCC [TG 16:1_20:4_20:4] (ion (formula + adduct): [C59H96O6+NH4] 1+): 323
CCCCCCCCCCCCCCCCCC(=O)OC[C@H](COP(=O)(O)OCCN)OC(=O)CCCCCCCCCCCCCCCCC [PE 18:0_18:0] (ion (formula + adduct): [C41H82NO8P+Na] 1+): 286.4
CCCCCCCCCCCCCCCC(=O)OC[C@H](COP(=O)([O-])OCC[N+](C)(C)C)OC(=O)CCCCCCCC=O [Oxidized PC 16:0_9:0@] (ion (formula + adduct): [C33H64NO9P+H] 1+): 257.85

====

experiment: TIMS collisional cross section (CCS, N2) of the lipid ion; higher = larger ion cross section; conditions: sample type: plasma; ionization mode: positive; one isomer drawn
MEASURED_ATTRIBUTE: TIMS collisional cross section (Å²)

CCCCC/C=C\C/C=C\CCCCCCCC(=O)OC[C@@H](O)COP(=O)(O)O[C@H]1C(O)C(O)C(O)[C@@H](O)C1O (some centres undefined) [LPI 18:2_0:0] (ion (formula + adduct): [C27H49O12P+H] 1+): 243
CCCCCCCCCCCCCCCCCCCC(=O)OC[C@@H](COC(=O)CCCCCCCCCCCCC)OC(=O)CCCCCCCCCCCCCCCCC [TG 14:0_18:0_20:0] (ion (formula + adduct): [C55H106O6+NH4] 1+): 326.1
C(OC(=O)CCCCCCCCCCCCCCC)[C@]([H])(OC(CCCCCCCCCCCCCCC)=O)COC(CCCCCCCCCCCCCCC)=O [TG 16:0_16:0_16:0] (ion (formula + adduct): [C51H98O6+NH4] 1+): 314.45
CC/C=C\C/C=C\C/C=C\C/C=C\C/C=C\C/C=C\CCC(=O)OC[C@@H](COC(=O)CCCCCCC/C=C\CCCCCCCC)OC(=O)CCCCCCC/C=C\C/C=C\CCCCC [TG 18:1_18:2_22:6] (ion (formula + adduct): [C61H100O6+NH4] 1+): 329

====

assay: TIMS collisional cross section (CCS, N2) of the lipid ion; higher = larger ion cross section; conditions: sample type: HeLa; ionization mode: positive; one isomer drawn
MEASURED_ATTRIBUTE: TIMS collisional cross section (Å²)

CCCCCC/C=C\CCCCCCCC(=O)OC[C@@H](COC(=O)CCCCCCCCCCCCCCC)OC(=O)CCCCCCCCCCCCCCC [TG 16:0_16:0_16:1] (ion (formula + adduct): [C51H96O6+NH4] 1+): 311.7
CC/C=C\C/C=C\C/C=C\C/C=C\C/C=C\C/C=C\CCC(=O)O[C@H](COC(=O)CCC/C=C\C/C=C\C/C=C\C/C=C\CCCCC)COP(=O)([O-])OCC[N+](C)(C)C [PC 20:4_22:6] (ion (formula + adduct): [C50H80NO8P+H] 1+): 295.5
CC/C=C\C/C=C\C/C=C\C/C=C\C/C=C\CCCC(=O)O[C@H](COC(=O)CCCCCCC/C=C\CCCCCC)COP(=O)([O-])OCC[N+](C)(C)C [PC 16:1_20:5] (ion (formula + adduct): [C44H76NO8P+H] 1+): 283.2
CCCCC/C=C\C/C=C\C/C=C\C/C=C\CCCC(=O)OC[C@H](COP(=O)(O)OCCN)OC(=O)CCC/C=C\C/C=C\C/C=C\C/C=C\CCCCC [PE 20:4_20:4] (ion (formula + adduct): [C45H74NO8P+H] 1+): 280.6
